Provide the reported microsomal CLint of each item.
- measurement description: Metabolic stability in human liver microsomes assessed as intrinsic clearance
- Type: ADME, Microsome
- experimental conditions: read-out: CLH
Please respond with the number in µL/min/mg and leave the unit unwritten.

// query So what's the measured microsomal CLint for this one? CC(C)c1cnc(N[C@H]2CCC[C@@H]2NC(=O)c2ccccc2-n2nccn2)cn1
// result 23

// query Which microsomal CLint reading was recorded for the molecule Cc1ccc(-n2nccn2)c(C(=O)N[C@H]2CCC[C@@H]2Nc2cnc3ccccc3n2)c1 ?
// result 24

---

- target desc: Orexin receptor type 2 (Homo sapiens, UniProt O43614)
- Sequence (O43614 whole entry): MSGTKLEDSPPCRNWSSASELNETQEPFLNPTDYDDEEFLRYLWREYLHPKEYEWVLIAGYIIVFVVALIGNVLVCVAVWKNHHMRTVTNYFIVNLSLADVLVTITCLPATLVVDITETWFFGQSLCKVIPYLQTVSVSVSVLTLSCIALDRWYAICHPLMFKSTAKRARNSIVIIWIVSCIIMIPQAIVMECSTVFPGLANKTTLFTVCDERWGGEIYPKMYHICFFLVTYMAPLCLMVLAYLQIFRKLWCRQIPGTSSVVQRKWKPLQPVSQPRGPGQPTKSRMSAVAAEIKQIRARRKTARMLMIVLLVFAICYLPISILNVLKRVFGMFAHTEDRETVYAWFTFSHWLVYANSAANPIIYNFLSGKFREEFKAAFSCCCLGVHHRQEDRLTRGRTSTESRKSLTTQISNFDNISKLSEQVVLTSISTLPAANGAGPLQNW
assay endpoint: pKi
By convention, pKi is the negative base-10 log of a molar concentration.

// query GET /values?readout=pKi&item= CCc1nc(C(F)(F)F)cnc1N[C@H]1CCC[C@@H]1NC(=O)c1ncccc1-n1nccn1
// result 4.89
